B1: glmS ribozyme (parent)
chain: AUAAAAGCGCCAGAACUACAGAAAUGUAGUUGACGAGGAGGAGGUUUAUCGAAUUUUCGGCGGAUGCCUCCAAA

# Variants of: B1
# assay.procedure: self-cleavage kobs at 10000 uM GlcN6P; higher = faster cleavage; RNA array
# details: with glucosamine-6-phosphate
Variants at the floor of the assay were thinned out.
metric.name: self-cleavage kobs at 10000 uM GlcN6P (s⁻¹)
Give a bare numeral; the unit s⁻¹ is implied.

In the examples that follow, each entry is paired with its recorded self-cleavage kobs at 10000 uM GlcN6P.
{"columns": ["sequence.variant", "metric.name", "test.result"],
 "data": [
  ["U47A U56G", "self-cleavage kobs at 10000 uM GlcN6P", 0.0194],
  ["A39G U45G A48G", "self-cleavage kobs at 10000 uM GlcN6P", "6.43e-05"],
  ["C11U U55A U56G", "self-cleavage kobs at 10000 uM GlcN6P", 0.00113],
  ["U30C C67U", "self-cleavage kobs at 10000 uM GlcN6P", "9.05e-05"],
  ["U31G U55G", "self-cleavage kobs at 10000 uM GlcN6P", 0.0152]
]}

Which measured self-cleavage kobs at 10000 uM GlcN6P value corresponds to C8U C61U C68G ?
0.000133

Which measured self-cleavage kobs at 10000 uM GlcN6P value corresponds to A53C U55G C67U ?
0.00164

Which measured self-cleavage kobs at 10000 uM GlcN6P value corresponds to A14C U54G ?
0.00448

Which measured self-cleavage kobs at 10000 uM GlcN6P value corresponds to C11G C50G ?
0.000187

Origin of values: the supplement of paper PMC7125110
